- Test system: T1, Recombinant human CD4 (R&D Systems, Cat. 10327-CD) (human, UniProt P01730 26-390, limits assumed)
- T1 construct: Bought reagent; also called huCD4
- Method notes: BLI Octet, non-clonal supernatant on AMC sensor, 100 nM human CD4, 1:1 local fit;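 note: Single-concentration kinetics per supernatant, with the 1:1 model fitted across both the association and dissociation phases of the sensorgram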
Outcome measure: Kd (nM)
Give the number; nM is assumed, so skip it.

Short answer for 75110_02N15A (antibody, V domains shown, Tested as non-clonal AlivaMab Mouse Kappa hybridoma supernatant, captured by anti-mouse IgG Fc sensor) VH: EVQLVESGGGLVQPGGSLRLSCAASGFTFSSYWMSWVRQAPGKGLEWVANINEDGNEKYYVDSVKGRFTISRDNAKNSLFLQMNSLRAEDTAVYFCAREGGQWLALDHWGQGALVTVSS VL: DIQMTQSPSSVSASVGDRVTITCRASQGISSWLAWYQQKPGKAPKFLISGASSLQSGVPSRFSGSGSGTDFTLTISSLQPEDFATYYCQQANSFPWTFGQGTKVEFK : Kd was 6.7

Short answer for 75110_13C13A (antibody, V domains shown, Tested as non-clonal AlivaMab Mouse Kappa hybridoma supernatant, captured by anti-mouse IgG Fc sensor) VH: QVQLQQWGAGLLKPSETLSLTCAVSGGSFSGYYWSWIRQPPGKGLEWIGEINHSGSTNCNPSLKSRVTISVDTSKNQFSLKLSSVTAADTAMYYCARVLNFFDYWGQGTLVTVSS VL: DIQMTQTPSSVSASVGDRVTITCRASPGISNWLAWYQQKPGKAPELLIYAASSLQSGVPSRFSGSGSGTDFTLTISSLQPEDFATYFCQQANSFPLTFGGGTKVESK : Kd was 3.2

Short answer for 75110_07H07A (antibody, V domains shown, Tested as non-clonal AlivaMab Mouse Kappa hybridoma supernatant, captured by anti-mouse IgG Fc sensor) VH: EVQVVESGGGLVQPGGSLRLSCAASGFTFSSYWMSWVRQAPGKGLEWVANIKEEGSEKYYVDSVKGRFTISRDNAKNSLYLQMNSLRAEDTAVYYCVREGGQWLALDYWGQGTLVTVSS VL: DIQMTQSPSSVSGSVGDRVTITCRASQGISSWLAWYQQKPGKAPKLLIFGASSLQSGVPSRFSGSGSGTDFTLTISSLQPEDFATYYCQQANSFPWTFGQGTKVQIK : Kd was 3.1

Short answer for 75110_03D16A (antibody, V domains shown, Tested as non-clonal AlivaMab Mouse Kappa hybridoma supernatant, captured by anti-mouse IgG Fc sensor) VH: EVQLVESGGGLVQPGGSLRLSCAASGFTFSSYWMSWVRQAPGKGLEWVANINQDGGEKYYVDSVKGRFTISRDNAKNSLYLQMNSLRAEDTAVYYCVREGGQWLALDYWGQGTLVTVSS VL: DIQMTQSPSSVSASVGDRVTITCRASQGISSWLTWYQQKPGKAPKFLIYAASSLQSGVPSRFSGSGFGTDFTLTISSLQPEDFATYYCQQANSFPWTFGQGTKVEIK : Kd was 6

Short answer for 75110_02E08A (antibody, V domains shown, Tested as non-clonal AlivaMab Mouse Kappa hybridoma supernatant, captured by anti-mouse IgG Fc sensor) VH: QVQLQESGPGLVKPSETLSLTCTVSGGSISTYYWTWIRQPAGKGLEWIGRVYTSGDTNYNPSLKSRVAMSLDTSKNQFSLKLSSVTAADTAVYYCARDSGALYSWNYGDAFDIWGQGTMVTVSS VL: DIQMTQSPSAMSASVGDRVTITCRASQDISNYLAWFQQKPGKVPKRLIYAASSLQSGVPSRFSGSGSGTEFTLTISSLQPEDFATYYCLQHNSYPRTFGQGTKVEIK : Kd was 1.5
